Data origin: ChEMBL document CHEMBL1201862

# Tested on: HCT-15
assay-metric: GI50 (µM)
The response must be a number in µM with no trailing unit.

compound	unit-descriptor	GI50
COc1cc(CN[C@H]2CCc3cc(OC)c(OC)c(OC)c3-c3ccc(SC)c(=O)cc32)cc(OC)c1	µM	0.0483

Query: Suppose we examine the compound `Cc1ccnn1CCc1ccc(Cl)cc1Cl` ; what GI50 value has been reported?
Reply: 36.5

Query: Would you kindly share the measured GI50 for C/C=C/C[C@@H](C)C(=O)C1C(=O)N[C@@H](C(C)C)C(=O)N(C)CC(=O)N(C)[C@@H](CC(C)C)C(=O)N[C@@H](C(C)C)C(=O)N(C)[C@@H](CC(C)C)C(=O)N[C@@H](C)C(=O)N[C@@H](C)C(=O)N(C)[C@@H](CC(C)C)C(=O)N(C)[C@@H](CC(C)C)C(=O)N(C)[C@@H](C(C)C)C(=O)N1C (some centres undefined) ?
Reply: 5.51

Query: Please look up its GI50: `CC1=C(C(=O)NCc2ccccc2)C(c2ccco2)C(C(=O)NCc2ccccc2)=C(C)N1`
Reply: 52.8
